TARGET_SYSTEM: Protein cereblon/Tyrosine-protein kinase ITK/TSK (Homo sapiens, UniProt Q08881+Q96SW2)
Sequence (Q08881 whole entry, looked up): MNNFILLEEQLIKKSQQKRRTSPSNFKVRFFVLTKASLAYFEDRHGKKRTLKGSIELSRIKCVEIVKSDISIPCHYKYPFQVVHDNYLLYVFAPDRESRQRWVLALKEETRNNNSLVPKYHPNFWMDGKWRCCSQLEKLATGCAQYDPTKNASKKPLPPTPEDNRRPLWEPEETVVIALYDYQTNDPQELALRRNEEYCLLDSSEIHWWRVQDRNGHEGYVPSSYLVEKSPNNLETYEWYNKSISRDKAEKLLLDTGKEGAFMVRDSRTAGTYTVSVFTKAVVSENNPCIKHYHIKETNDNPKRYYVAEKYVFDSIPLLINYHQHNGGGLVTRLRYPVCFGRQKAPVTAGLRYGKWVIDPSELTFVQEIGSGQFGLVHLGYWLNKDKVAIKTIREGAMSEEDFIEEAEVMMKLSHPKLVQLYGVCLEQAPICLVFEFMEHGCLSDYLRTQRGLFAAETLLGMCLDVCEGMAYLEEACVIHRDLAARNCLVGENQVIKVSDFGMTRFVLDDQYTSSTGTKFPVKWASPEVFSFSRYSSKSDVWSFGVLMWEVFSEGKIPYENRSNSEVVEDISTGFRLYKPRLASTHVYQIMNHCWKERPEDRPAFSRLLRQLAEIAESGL
Sequence (Q96SW2 whole entry, looked up): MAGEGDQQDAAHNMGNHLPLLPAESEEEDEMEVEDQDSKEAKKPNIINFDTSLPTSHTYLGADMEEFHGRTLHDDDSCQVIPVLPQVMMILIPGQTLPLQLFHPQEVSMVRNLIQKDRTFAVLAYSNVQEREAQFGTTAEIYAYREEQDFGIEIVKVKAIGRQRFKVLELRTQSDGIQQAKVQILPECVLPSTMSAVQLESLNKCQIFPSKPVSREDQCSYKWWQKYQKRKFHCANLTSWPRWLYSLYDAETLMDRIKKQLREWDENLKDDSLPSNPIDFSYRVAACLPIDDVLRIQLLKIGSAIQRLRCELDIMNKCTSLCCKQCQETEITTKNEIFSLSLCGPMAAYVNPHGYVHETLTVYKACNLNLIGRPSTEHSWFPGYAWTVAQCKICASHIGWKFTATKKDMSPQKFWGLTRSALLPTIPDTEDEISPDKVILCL
PROTOCOL_SUMMARY: PROTAC activity at CRBN/ITK in human Jurkat cells assessed as maximum degradation at 0.01 to 10 uM by Western blot analysis relative to control
Format: cell-based
CONDITION_INFO: dose 0.01-10 µM
TEST_READOUT: Emax (%)

COMPOUND | TEST_READOUT | VALUE_OBSERVED
CN(CCCCCCC(=O)Nc1ccc2c(c1)C(=O)N(C1CCC(=O)NC1=O)C2=O)CC[C@@H](c1ccccc1)n1cc(NC(=O)c2n[nH]c3c2CCC(C)(C)C3)cn1 (stereo partly drawn) | Emax | 90
CN(CCOCCOCCOCCOCC(=O)Nc1cccc2c1C(=O)N(C1CCC(=O)NC1=O)C2=O)CC[C@@H](c1ccccc1)n1cc(NC(=O)c2n[nH]c3c2CCC(C)(C)C3)cn1 (stereo partly drawn) | Emax | 75
CN(CCOCCOCCOCCOCC(=O)Nc1ccc2c(c1)C(=O)N(C1CCC(=O)NC1=O)C2=O)CC[C@@H](c1ccccc1)n1cc(NC(=O)c2n[nH]c3c2CCC(C)(C)C3)cn1 (stereo partly drawn) | Emax | 92
CN(CCOCCOCC(=O)Nc1ccc2c(c1)C(=O)N(C1CCC(=O)NC1=O)C2=O)CC[C@@H](c1ccccc1)n1cc(NC(=O)c2n[nH]c3c2CCC(C)(C)C3)cn1 (stereo partly drawn) | Emax | 95
CN(CCOCCOCC(=O)Nc1cccc2c1C(=O)N(C1CCC(=O)NC1=O)C2=O)CC[C@@H](c1ccccc1)n1cc(NC(=O)c2n[nH]c3c2CCC(C)(C)C3)cn1 (stereo partly drawn) | Emax | 75
CN(CCOCCNC(=O)CNc1cccc2c1C(=O)N(C1CCC(=O)NC1=O)C2=O)CC[C@@H](c1ccccc1)n1cc(NC(=O)c2n[nH]c3c2CCC(C)(C)C3)cn1 (stereo partly drawn) | Emax | 99
CN(CCCCC(=O)Nc1ccc2c(c1)C(=O)N(C1CCC(=O)NC1=O)C2=O)CC[C@@H](c1ccccc1)n1cc(NC(=O)c2n[nH]c3c2CCC(C)(C)C3)cn1 (stereo partly drawn) | Emax | 90
CN(CCOCCC(=O)NC1=CCC2C(=O)N(C3CCC(=O)NC3=O)C(=O)C2=C1)CC[C@@H](c1ccccc1)n1cc(NC(=O)c2n[nH]c3c2CCC(C)(C)C3)cn1 (stereo partly drawn) | Emax | 97

* * *

TARGET_SYSTEM: Protein cereblon/Tyrosine-protein kinase ITK/TSK (Homo sapiens, UniProt Q08881+Q96SW2)
PROTOCOL_SUMMARY: PROTAC activity at CRBN/ITK in human Jurkat cells assessed as maximum degradation at 0.01 to 10 uM by Western blot analysis relative to control
Format: cell-based
CONDITION_INFO: dose 0.01-10 µM
TEST_READOUT: Emax (%)

COMPOUND | VALUE_OBSERVED
CC1(C)CCc2c(C(=O)Nc3cnn([C@@H](CCN4CCN(CC5CN(c6ccc7c(c6)C(=O)N(C6CCC(=O)NC6=O)C7=O)C5)CC4)c4ccccc4)c3)n[nH]c2C1 (stereo partly specified) | 85
CN(CCCCCCCCC(=O)Nc1ccc2c(c1)C(=O)N(C1CCC(=O)NC1=O)C2=O)CC[C@@H](c1ccccc1)n1cc(NC(=O)c2n[nH]c3c2CCC(C)(C)C3)cn1 (stereo partly specified) | 93
CN(CCCCCC(=O)Nc1ccc2c(c1)C(=O)N(C1CCC(=O)NC1=O)C2=O)CC[C@@H](c1ccccc1)n1cc(NC(=O)c2n[nH]c3c2CCC(C)(C)C3)cn1.O=C(O)C(F)(F)F (stereo partly specified) | 99
CC1(C)CCc2c(C(=O)Nc3cnn([C@@H](CCN4CCN(CCC5CN(c6ccc7c(c6)C(=O)N(C6CCC(=O)NC6=O)C7=O)C5)CC4)c4ccccc4)c3)n[nH]c2C1 (stereo partly specified) | 90
CN(CCOCCOCCOCC(=O)Nc1ccc2c(c1)C(=O)N(C1CCC(=O)NC1=O)C2=O)CC[C@@H](c1ccccc1)n1cc(NC(=O)c2n[nH]c3c2CCC(C)(C)C3)cn1 (stereo partly specified) | 93
CN(CCCCCCCCCCC(=O)Nc1ccc2c(c1)C(=O)N(C1CCC(=O)NC1=O)C2=O)CC[C@@H](c1ccccc1)n1cc(NC(=O)c2n[nH]c3c2CCC(C)(C)C3)cn1 (stereo partly specified) | 82
CN(CCOCCOCCOCCNC(=O)CNc1cccc2c1C(=O)N(C1CCC(=O)NC1=O)C2=O)CC[C@@H](c1ccccc1)n1cc(NC(=O)c2n[nH]c3c2CCC(C)(C)C3)cn1 (stereo partly specified) | 93
CN(CCOCCOCCOCC(=O)Nc1cccc2c1C(=O)N(C1CCC(=O)NC1=O)C2=O)CC[C@@H](c1ccccc1)n1cc(NC(=O)c2n[nH]c3c2CCC(C)(C)C3)cn1 (stereo partly specified) | 75
CN(CCOCCOCCNC(=O)CNc1cccc2c1C(=O)N(C1CCC(=O)NC1=O)C2=O)CC[C@@H](c1ccccc1)n1cc(NC(=O)c2n[nH]c3c2CCC(C)(C)C3)cn1 (stereo partly specified) | 95
CC1(C)CCc2c(C(=O)Nc3cnn([C@@H](CCN4CCN(CC5CCN(c6ccc7c(c6)C(=O)N(C6CCC(=O)NC6=O)C7=O)CC5)CC4)c4ccccc4)c3)n[nH]c2C1 (stereo partly specified) | 90
CC1(C)CCc2c(C(=O)Nc3cnn([C@@H](CCN4CCN(CCC5CCN(c6ccc7c(c6)C(=O)N(C6CCC(=O)NC6=O)C7=O)CC5)CC4)c4ccccc4)c3)n[nH]c2C1.O=C(O)C(F)(F)F (stereo partly specified) | 95
